# testedOn: UniProt:P35346
# methodNotes: Inositol phosphate accumulation assay (IP1 HTRF, antagonist mode)
# setupConditions: CHO-K1 cells co-expressing human SSTR5 with Gqi5, SST28 agonist at concentration generating 90% of full activation
pIC50: −log10 of the molar value.
Reported values of pIC50 for individual entries
valueType: pIC50

CCOc1cc(-c2ccc(F)cc2)c(C2CC2)cc1CN1CCC2(CC1)CN(c1ccc(C(=O)NCCS(=O)(=O)O)cc1)C(=O)N2 :: ≥ 7.00
CCOc1cc(C(=O)OC)c(C2CC2)cc1CN1CCC2(CC1)CC(=O)N(c1ccc(C(=O)NCCCP(C)(=O)O)cc1)C2 :: < 5.30
CCOc1cc(-c2ccc(F)cn2)c(C2CC2)cc1CN1CCC2(CC1)CN(c1ccc(S(=O)(=O)NCCOCCO)cc1)C(=O)O2 :: ≥ 7.00

* * *

# testedOn: human SSTR5 (Homo sapiens, UniProt P35346)
# Sequence (P35346 whole entry): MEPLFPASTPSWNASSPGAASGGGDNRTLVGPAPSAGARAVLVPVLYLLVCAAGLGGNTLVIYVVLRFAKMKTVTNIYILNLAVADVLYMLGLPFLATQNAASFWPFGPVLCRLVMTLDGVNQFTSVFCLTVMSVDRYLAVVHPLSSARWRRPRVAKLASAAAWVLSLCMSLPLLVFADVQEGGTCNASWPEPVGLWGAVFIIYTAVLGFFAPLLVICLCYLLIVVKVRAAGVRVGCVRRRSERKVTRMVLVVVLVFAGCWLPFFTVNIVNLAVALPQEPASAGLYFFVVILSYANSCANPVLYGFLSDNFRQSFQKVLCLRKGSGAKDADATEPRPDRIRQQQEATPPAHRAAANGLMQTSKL
# methodNotes: Inositol phosphate accumulation assay (IP1 HTRF, antagonist mode)
# setupConditions: CHO-K1 cells co-expressing human SSTR5 with Gqi5, SST28 agonist at concentration generating 90% of full activation
valueType: IC50

CCOc1cc(C(=O)OC)c(C2CC2)cc1CN1CCC2(CC1)CN(c1ccc(C(=O)NCCO)cc1)C(=O)N2 :: 100 to 1000 nM
CCOc1cc(C(=O)OC)c(C2CC2)cc1CN1CCC2(CC1)CN(c1ccc(C(=O)NCCCS(=O)(=O)O)cc1)C(=O)O2 :: ≤ 100 nM
CCOc1cc(CN2CCC3(CC2)CN(c2ccc(C(=O)NCCCS(=O)(=O)O)cc2)C(=O)O3)cc(OCC)c1-c1ccc(F)cc1 :: ≤ 100 nM
CCOc1cc(CN2CCC3(CC2)CN(c2ccc(C(=O)NCCS(=O)(=O)O)cc2)C(=O)O3)cc(OCC)c1-c1ccc(F)cc1 :: > 5000 nM
CCOc1cc(-c2ccc(F)cc2)c(C2CC2)cc1CN1CCC2(CC1)CN(c1ccc(C(=O)NC[C@H](O)[C@@H](O)[C@H](O)[C@H](O)CO)cc1)C(=O)O2 :: ≤ 100 nM
CCOc1cc(C(=O)OC)c(C2CC2)cc1CN1CCC2(CC1)CN(c1ccc(C(=O)NCCOCCO)cc1)C(=O)O2 :: ≤ 100 nM

* * *

# testedOn: human SSTR5 (Homo sapiens)
# methodNotes: Inositol phosphate accumulation assay (IP1 HTRF, antagonist mode)
# setupConditions: CHO-K1 cells co-expressing human SSTR5 with Gqi5, SST28 agonist at concentration generating 90% of full activation
pIC50: −log10 of the molar value.
Reported values of pIC50 for individual entries
valueType: pIC50

CCOc1cc(C(=O)OC)c(C2CC2)cc1CN1CCC2(CC1)CN(c1ccc(C(=O)NCCCS(=O)(=O)O)cc1)C(=O)N2 :: < 5.30
CCOc1cc(C(=O)OC)c(C2CC2)cc1CN1CCC2(CC1)CC(=O)N(c1ccc(C(=O)NCCC(=O)O)cc1)C2 :: 6.00 to 7.00
CCOc1cc(C(=O)OC)c(C2CC2)cc1CN1CCC2(CC1)CC(=O)N(c1ccc(C(=O)NCCS(N)(=O)=O)cc1)C2 :: 6.00 to 7.00
CCOc1cc(C(=O)OC)c(C2CC2)cc1CN1CCC2(CC1)CC(=O)N(c1ccc(C(=O)NC[C@@H](O)CO)cc1)C2 :: 6.00 to 7.00
CCOc1cc(C(=O)OC)c(C2CC2)cc1CN1CCN(C(=O)Oc2ccc(C(=O)N3CC(CNC[C@H](O)[C@@H](O)[C@H](O)[C@H](O)CO)C3)cc2)CC1 :: 6.00 to 7.00
CCOc1cc(C(=O)OC)c(C2CC2)cc1CN1CCC2(CC1)CC(=O)N(c1ccc(C(=O)NCCCCS(N)(=O)=O)cc1)C2 :: 6.00 to 7.00

* * *

# testedOn: human SSTR5 (Homo sapiens, UniProt P35346)
# methodNotes: Inositol phosphate accumulation assay (IP1 HTRF, antagonist mode)
# setupConditions: CHO-K1 cells co-expressing human SSTR5 with Gqi5, SST28 agonist at concentration generating 90% of full activation
pIC50: −log10 of the molar value.
valueType: pIC50

CCOc1cc(C(=O)OC)c(C2CC2)cc1CN1CCC2(CC1)CC(=O)N(c1ccc(C(=O)NCCCC(=O)NCCO)cc1)C2 :: 5.30 to 6.00
CCOc1cc(-c2ccc(F)cc2)c(C2CC2)cc1CN1CCC2(CC1)CN(c1ccc(C(=O)NCCOCCO)cc1)C(=O)O2 :: ≥ 7.00
CCOc1cc(C(=O)OC)c(C2CC2)cc1CN1CCC2(CC1)CC(=O)N(c1ccc(C(=O)NCCC[N+](C)(C)C)cc1)C2 :: < 5.30
CCOc1cc(S(C)(=O)=O)c(C2CC2)cc1CN1CCC2(CC1)CN(c1ccc(S(=O)(=O)N(Cc3ccc(OC)cc3)Cc3ccc(OC)cc3)cc1)C(=O)N2 :: ≥ 7.00
CCOc1cc(C(=O)OC)c(C2CC2)cc1CN1CCN(C(=O)Oc2ccc(C(=O)NC[C@H](O)[C@@H](O)[C@H](O)[C@H](O)CO)cc2)CC1 :: 6.00 to 7.00
CCOc1cc(-c2ccc(F)cc2)c(C2CC2)cc1CN1CCC2(CC1)CN(c1ccc(S(=O)(=O)NCCOCCO)cc1)C(=O)O2 :: ≥ 7.00
CCOc1cc(-c2ccc(F)cc2)c(C2CC2)cc1CN1CCN(C(=O)Oc2ccc(C(=O)NC[C@H](O)[C@@H](O)[C@H](O)[C@H](O)CO)cc2)CC1 :: ≥ 7.00
CCOc1cc(C(=O)OC)c(C2CC2)cc1CN1CCC2(CC1)CC(=O)N(c1ccc(C(=O)N(C)CCCC(=O)O)cc1)C2 :: < 5.30
CCOc1cc(-c2ccc(F)cc2)c(C2CC2)cc1CN1CCC2(CC1)CN(c1ccc(C(=O)NCCCNC(N)=O)cc1)C(=O)O2 :: ≥ 7.00
CCOc1cc(C(=O)OC)c(C2CC2)cc1CN1CCC2(CC1)CC(=O)N(c1ccc(C(=O)NCCNC(=O)NC(CO)CO)cc1)C2 :: < 5.30
CCOc1cc(-c2ccc(F)cc2)c(C2CC2)cc1CN1CCC2(CC1)CN(c1ccc(C(=O)NCCCS(=O)(=O)O)cc1)C(=O)N2 :: ≥ 7.00
CCOc1cc(C(=O)OC)c(C2CC2)cc1CN1CCC2(CC1)CC(=O)N(c1ccc(C(=O)NCCNC(=O)NCCO)cc1)C2 :: < 5.30
CCOc1cc(C(=O)OC)c(C2CC2)cc1CN1CCC2(CC1)CC(=O)N(c1ccc(C(=O)NCCNC(N)=O)cc1)C2 :: 6.00 to 7.00

* * *

Reported values of IC50 for individual entries
# testedOn: human SSTR5 (Homo sapiens)
# methodNotes: Inositol phosphate accumulation assay (IP1 HTRF, antagonist mode)
# setupConditions: CHO-K1 cells co-expressing human SSTR5 with Gqi5, SST28 agonist at concentration generating 90% of full activation
valueType: IC50

CCOc1cc(-c2ccc(F)cn2)c(C2CC2)cc1CN1CCC2(CC1)CN([C@H]1CC[C@](C)(C(=O)NCCOCCO)CC1)C(=O)O2 [compound 90] :: ≤ 100 nM
CCOc1cc(CN2CCC3(CC2)CN(c2ccc(C(=O)NCCCC(=O)NCCO)cc2)C(=O)O3)cc(OCC)c1-c1ccc(F)cc1 [compound 1] :: 100 to 1000 nM
CCOc1cc(C#N)c(C2CC2)cc1CN1CCN(C(=O)Oc2ccc(C(=O)NCCCC(=O)NCCO)cc2)CC1 [compound 95] :: > 5000 nM
CCOc1cc(-c2ccc(F)cc2)c(C2CC2)cc1CN1CCC2(CC1)CN(c1ccc(C(=O)NCCOC(CO)CO)cc1)C(=O)N2 [Example 73] :: ≤ 100 nM
CCOc1cc(-c2ccc(F)cc2)c(C2CC2)cc1CN1CCC2(CC1)CN(c1ccc(C(=O)NCCO)cc1)C(=O)N2 [Example 69] :: ≤ 100 nM
CCOc1cc(-c2ccc(F)cn2)c(C2CC2)cc1CN1CCC2(CC1)CN([C@H]1CC[C@@](C)(C(=O)NCCCS(=O)(=O)O)CC1)C(=O)O2 [compound 88] :: 100 to 1000 nM
CCOc1cc(C(=O)OC)c(C2CC2)cc1CN1CCC2(CC1)CC(=O)N(c1ccc(C(=O)N3C[C@H](O)[C@@H](O)C3)cc1)C2 [Example 43] :: > 5000 nM
CCOc1cc(C(=O)OC)c(C2CC2)cc1CN1CCC2(CC1)CC(=O)N(c1ccc(C(=O)NCCC(O)CO)cc1)C2 (centres unmarked) [Example 48] :: 100 to 1000 nM
CCOc1cc(CN2CCC3(CC2)CN(c2ccc(C(=O)NCCCCS(=O)(=O)O)cc2)C(=O)O3)cc(OCC)c1-c1ccc(F)cc1 [Example 10] :: ≤ 100 nM
CCOc1cc(-c2ccc(F)cn2)c(C2CC2)cc1CN1CCC2(CC1)CN(c1ccc(C(=O)NCCOCCO)cc1)C(=O)N2 [Example 74] :: ≤ 100 nM
CCOc1cc(C(=O)OC)c(C2CC2)cc1CN1CCN(C(=O)Oc2cccc(C(=O)NC[C@H](O)[C@@H](O)[C@H](O)[C@H](O)CO)c2)CC1 [Example 98] :: 100 to 1000 nM
CCOc1cc(C(=O)OC)c(C2CC2)cc1CN1CCC2(CC1)CC(=O)N(c1ccc(C(=O)NCCS(=O)(=O)O)cc1)C2 [Example 29] :: 100 to 1000 nM
CCOc1cc(C(=O)OC)c(C2CC2)cc1CN1CCC2(CC1)CN(c1ccc(C(=O)NCCCNC(N)=O)cc1)C(=O)O2 [Example 57] :: ≤ 100 nM
CCOc1cc(C(=O)OC)c(C2CC2)cc1CN1CCC2(CC1)CC(=O)N(c1ccc(C(=O)NCCNC(=O)NC(CO)(CO)CO)cc1)C2 [Example 18] :: 100 to 1000 nM
CCOc1cc(-c2nc(C)no2)c(C2CC2)cc1CN1CCC2(CC1)CN(c1ccc(C(=O)NCCOCCO)cc1)C(=O)N2 [Example 67] :: 100 to 1000 nM
CCOc1cc(C(=O)OC)c(C2CC2)cc1CN1CCC2(CC1)CC(=O)N(c1ccc(C(=O)N3CC(CO)(CO)C3)cc1)C2 [Example 42] :: 1000 to 5000 nM
CCOc1cc(C(=O)OC)c(C2CC2)cc1CN1CCC2(CC1)CC(=O)N(c1ccc(C(=O)NCCCNC(N)=O)cc1)C2 [Example 39] :: 100 to 1000 nM
CCOc1cc(C(=O)OC)c(C2CC2)cc1CN1CCC2(CC1)CC(=O)N(c1ccc(C(=O)N3CCC(S(N)(=O)=O)CC3)cc1)C2 [Example 52] :: 100 to 1000 nM
CCOc1cc(C(=O)OC)c(C2CC2)cc1CN1CCC2(CC1)CC(=O)N(c1ccc(C(=O)NC(CO)CO)cc1)C2 [Example 19] :: 100 to 1000 nM
CCOc1cc(C(=O)OC)c(C2CC2)cc1CN1CCC2(CC1)CC(=O)N(c1ccc(C(=O)NCCOCCO)cc1)C2 [Example 26] :: 100 to 1000 nM
CCOc1cc(C(=O)OC)c(C2CC2)cc1CN1CCC2(CC1)CN(c1ccc(C(=O)NCCCS(N)(=O)=O)cc1)C(=O)N2 [Example 79] :: 100 to 1000 nM
CCOc1cc(CN2CCC3(CC2)CN(c2ccc(C(=O)NCCNC(=O)NC(CO)(CO)CO)cc2)C(=O)O3)cc(OCC)c1-c1ccc(F)cc1 [Example 7] :: ≤ 100 nM
CCOc1cc(-c2ccc(F)cc2)c(C2CC2)cc1CN1CCC2(CC1)CN(c1ccc(S(=O)(=O)NCCOCCOCCO)cc1)C(=O)O2 [Example 83] :: ≤ 100 nM
CCOc1cc(C(=O)OC)c(C2CC2)cc1CN1CCC2(CC1)CC(=O)N(c1ccc(C(=O)NCCCN)cc1)C2 [Example 46] :: > 5000 nM
CCOc1cc(C(=O)OC)c(C2CC2)cc1CN1CCC2(CC1)CC(=O)N(c1ccc(C(=O)N(CCO)CCO)cc1)C2 [Example 34] :: 1000 to 5000 nM
CCOc1cc(C(=O)OC)c(C2CC2)cc1CN1CCC2(CC1)CC(=O)N(c1ccc(C(=O)NC(CO)(CO)CO)cc1)C2 [Example 21] :: > 5000 nM
